Assay: Plasma pharmacokinetics after single subcutaneous doses, clinical phase I study
Assay type: in vivo, human (healthy male subjects)
Details: male, human, sc; 16 mg s.c. single dose, N = 6, plasma; read-out: tmax, Median
Result Type: Tmax (min)
API: value field is a number in min; no unit string.

Memo: "CCCCOC(=O)N1CCN(C(=O)[C@H](CP(=O)(O)O)NC(=O)c2cc(N3CC[C@H](OC)C3)nc(-c3ccccc3)n2)CC1" , reported Tmax: 45
